System: U-251
MEASUREMENT_DESCRIPTION: NCI tumour cell line growth inhibition, 48 h
Calls of active or inactive are those of the source. Rule as the data show it: active = GI50 up to about 1.1 µM and inactive = higher.
Recorded measurements of GI50, one per entry

>  <COMPOUND>
COc1ccc(-c2cc(-c3ccc(Nc4ccnc5cc(Cl)ccc45)cc3)[nH]c(=O)c2C#N)c2ccccc12

>  <GI50>
1.87 µM (inactive)

$$$$
>  <COMPOUND>
CCCCCc1cc2c(cc1O)CC[C@@H]1[C@@H]2CC[C@]2(C)[C@@H](O)CC[C@@H]12

>  <GI50>
17.6 µM (inactive)

$$$$
>  <COMPOUND>
O=C(/C=C/c1ccccc1)CCN1CCN(CCC(=O)/C=C/c2ccccc2)CC1

>  <GI50>
16.7 µM (inactive)

$$$$
>  <COMPOUND>
OCC(O)C(OC1OC(CO)C(O)C(O)C1O)c1nn(-c2ccccc2)c2nc3cc(Cl)c(Cl)cc3cc12 (stereo unspecified)

>  <GI50>
> 100 µM (inactive)

$$$$
>  <COMPOUND>
COc1ccc(/C=C2\OC(=O)C(Cl)=C2c2ccc(OC)c(Cl)c2)cc1

>  <GI50>
29.4 µM (inactive)

$$$$
>  <COMPOUND>
CCC12CCCN(Cc3ccccc3)C1c1c(n(C)c3ccccc13)C(CO)C2 (stereo unspecified)

>  <GI50>
49.3 µM (inactive)

$$$$
>  <COMPOUND>
COc1cccc(N2C(=O)c3c(c4[nH]c5ccccc5c4c4ccc(C(C)(C)C)cc34)C2=O)c1

>  <GI50>
> 100 µM (inactive)

$$$$
>  <COMPOUND>
COc1ccc2[nH]c3c4c(cc(-c5ccccc5)c3c2c1)C(=O)N(c1ccccc1)C4=O

>  <GI50>
5.98 µM (inactive)

$$$$
>  <COMPOUND>
O=C(/C=C/c1ccc([N+](=O)[O-])o1)N1CCN(Cc2ccccc2)CC1

>  <GI50>
14 µM (inactive)

$$$$
>  <COMPOUND>
C/C(=N\NC(=S)N1CCCCCCCCCCCC1)c1ccccn1

>  <GI50>
0.0673 µM (active)

$$$$
>  <COMPOUND>
CCOC(=O)C1(F)S(=O)(=O)OCCOS1(=O)=O

>  <GI50>
> 100 µM (inactive)

$$$$
>  <COMPOUND>
COC(=O)C(Cc1c(C2Nc3ccccc3C2CC(NC(C)=O)C(=O)OC)[nH]c2ccccc12)NC(C)=O (stereo unspecified)

>  <GI50>
> 100 µM (inactive)

$$$$
>  <COMPOUND>
COc1ccc(C(C)Nc2cc(OC)c(OC)c(OC)c2)cc1 (stereo unspecified)

>  <GI50>
2.75 µM (inactive)

$$$$
>  <COMPOUND>
O=C(Nc1ccc(Cl)cc1)Oc1ccc(C(=S)Nc2ccc(Br)cc2)cc1

>  <GI50>
20.5 µM (inactive)

$$$$
>  <COMPOUND>
CC(C)Cc1ccc(C(C)/C=C2\CCC(CN3CCCC3)C2=O)cc1 (stereo unspecified)

>  <GI50>
5.87 µM (inactive)

$$$$
>  <COMPOUND>
C=CCNC(=S)N/N=C1\C(=O)N(CN2CCOCC2)c2ccc([N+](=O)[O-])cc21

>  <GI50>
18.1 µM (inactive)

$$$$
>  <COMPOUND>
COc1ccc2c(c1)CC[C@@H]1[C@@H]2CC[C@]2(C)C(=O)/C(=C/c3ccc(C#N)cc3)C[C@@H]12

>  <GI50>
> 100 µM (inactive)

$$$$
>  <COMPOUND>
CC(C)CCC1(CCN)C(=O)NC(=O)NC1=O

>  <GI50>
> 100 µM (inactive)

$$$$
>  <COMPOUND>
COC(=O)c1ccccc1CC1Cc2ccc3c(c2C1=O)CCCC3 (stereo unspecified)

>  <GI50>
50.6 µM (inactive)

$$$$
>  <COMPOUND>
COc1cc2ccc(CC#N)cc2cc1OC

>  <GI50>
> 100 µM (inactive)

$$$$
>  <COMPOUND>
N[C@H](CCC(=O)NCP(=O)(O)O)C(=O)O

>  <GI50>
> 100 µM (inactive)

$$$$
